- Tested on: YAP/TAZ-TEAD transcription
- experimental_protocol: Reporter gene assay for measuring the inhibition of YAP/TAZ-TEAD transcription (TEAD-responsive element luciferase reporter in Hek293T cells)
- Assay type: cell-based
- protocol_conditions: Homo sapiens, HEK-293T, 24 h, Hek293T cells transiently transfected with TEAD-responsive element luciferase reporter; 24 hours incubation
pIC50: −log10 of the molar value.
Quick reference: pIC50 of the listed items.

{"columns": ["compound", "experimental_readout", "observed_value"],
 "data": [
  ["C=CC(=O)NC1Cc2ccccc2N(c2ccc(C(F)(F)F)cc2F)C1 (stereo not drawn)", "pIC50", "> 6.00"]
]}

Turning now to a further record.
Lookup: // pIC50 lookup, key: C=CC(=O)NCC1Cc2ccccc2N(c2ccc(C(F)(F)F)cc2F)C1 (stereo not drawn)
Found: > 6.00

====

Quick reference: pIC50 of the listed items.
- System: YAP/TAZ-TEAD transcription
- experimental_protocol: Reporter gene assay for measuring the inhibition of YAP/TAZ-TEAD transcription (TEAD-responsive element luciferase reporter in Hek293T cells)
- Assay type: cell-based
- protocol_conditions: Homo sapiens, HEK-293T, 24 h, Hek293T cells transiently transfected with TEAD-responsive element luciferase reporter; 24 hours incubation
pIC50: −log10 of the molar value.

Example results:
{"columns": ["compound", "pIC50"],
 "data": [
  ["FC(F)(F)c1ccc(N2CC(C3CC(Br)=NO3)Cc3ccccc32)cc1 (stereo not drawn) [Cpd. No. 194]", "> 6.00"],
  ["CC(C)=CC(=O)NCC1Cc2ccccc2N(c2ccc(C(F)(F)F)cc2)C1 (stereo not drawn) [compound 099]", "4.70 to 6.00"],
  ["C=CC(=O)NC1Cc2cccnc2N(c2ccc(C(F)(F)F)cc2)C1 (stereo not drawn) [compound 081]", "> 6.00"]
]}

Lookup: Notebook: pull reported pIC50 for YAP/TAZ-TEAD transcription, entry C=CC(=O)NCC1Cc2ccccc2N([C@H]2CC[C@@H](C(F)(F)F)CC2)C1 (stereo partly drawn) [compound 144]
Found: > 6.00

Lookup: Notebook: pull reported pIC50 for YAP/TAZ-TEAD transcription, entry C=CC(=O)NCC1Cc2ccccc2N(c2ccc(Cl)cc2)C1 (stereo not drawn) [compound 089]
Found: > 6.00

Lookup: Notebook: pull reported pIC50 for YAP/TAZ-TEAD transcription, entry N#CCC(=O)NCC1Cc2ccccc2N(c2ccc(C(F)(F)F)cc2)C1 (stereo not drawn) [compound 125]
Found: > 6.00

Lookup: Notebook: pull reported pIC50 for YAP/TAZ-TEAD transcription, entry C=CC(=O)NC1Cc2c(Cc3ccccc3)cccc2N(c2ccc(C(F)(F)F)cc2)C1 (stereo not drawn) [compound 066]
Found: > 6.00

====

- Test system: YAP/TAZ-TEAD transcription
- experimental_protocol: Reporter gene assay for measuring the inhibition of YAP/TAZ-TEAD transcription (TEAD-responsive element luciferase reporter in Hek293T cells)
- Assay type: cell-based
- protocol_conditions: Homo sapiens, HEK-293T, 24 h, Hek293T cells transiently transfected with TEAD-responsive element luciferase reporter; 24 hours incubation
experimental_readout: IC50

Example results:
{"columns": ["compound", "IC50"],
 "data": [
  ["CCC(=O)NC1Cc2ccccc2N(c2ccc(C(F)(F)F)cc2)C1 (stereo not shown) [compound 037]", "1000 to 20000 nM"],
  ["C=CC(=O)NC1Cc2ccccc2N(c2ccc(F)c(F)c2)C1 (stereo not shown) [compound 018]", "< 1000 nM"],
  ["C=CC(=O)NCC1Cc2ccccc2N(c2ccc(C(F)(F)F)cc2)C1 (stereo not shown) [compound 084]", "< 1000 nM"],
  ["C=CC(=O)NC1Cc2c(CO)cccc2N(c2ccc(C(F)(F)F)cc2)C1 (stereo not shown) [compound 139]", "< 1000 nM"],
  ["N#CCC(=O)NC1Cc2ccccc2N(c2ccc(C(F)(F)F)cc2)C1 (stereo not shown) [compound 052]", "1000 to 20000 nM"],
  ["C=CC(=O)NCC1Cc2ccccc2N(c2cc(F)cc(F)c2)C1 (stereo not shown) [compound 111]", "< 1000 nM"]
]}

Lookup: // IC50 lookup, key: C=CC(=O)NCC1Cc2ccccc2N(c2cccc(F)c2)C1 (stereo not shown) [compound 108]
Found: < 1000 nM
